All values here come from patent US6403581B1.

target: farnesyl-protein transferase (FPTase) (Homo sapiens, UniProt P49354+P49356); assay: in vitro FPTase inhibition, H-Ras as substrate for farnesylation; assay type: biochemical; conditions: H-Ras used as substrate for farnesylation
Where a name gives a salt, the structure may show the parent alone.
measurement.kind: IC50

Example entries begin here.
INSERT INTO assay_data (compound, val) VALUES
  ('c1cc2c3c(cccc3c1)N(CCCN1C(=NCCCn3ccnc3)c3cccc4cccc1c34)C2=NCCCn1ccnc1 [Example 6]', '2.25 µM'),
  ('c1ccc(OCCCN2C(=NCCCn3ccnc3)c3cccc4cccc2c34)cc1 [Example 12, Dihydrochloride]', '1.5 µM'),
  ('Clc1ccc(CN2C(=NCCCn3ccnc3)c3cccc4cccc2c34)cc1 [Example 15]', '0.18 µM');

--- query ---
Query block: Returns the measured IC50 for the input compound. Input: c1ccc(N2C(=NCCCn3ccnc3)c3cccc4cccc2c34)cc1 [Example 16]
Result block: 2.5 µM
